molecular target: alpha2B adrenergic receptors (Homo sapiens, UniProt P18089); construct: expressed in transfected cells; host or cells: NIH-3T3; assay: Receptor Selection and Amplification Technology (RSAT) assay, alpha2B; assay type: cell-based; settings: fraction of maximal effect of standard full agonist brimonidine (UK14304)
Sequence (P18089 whole entry): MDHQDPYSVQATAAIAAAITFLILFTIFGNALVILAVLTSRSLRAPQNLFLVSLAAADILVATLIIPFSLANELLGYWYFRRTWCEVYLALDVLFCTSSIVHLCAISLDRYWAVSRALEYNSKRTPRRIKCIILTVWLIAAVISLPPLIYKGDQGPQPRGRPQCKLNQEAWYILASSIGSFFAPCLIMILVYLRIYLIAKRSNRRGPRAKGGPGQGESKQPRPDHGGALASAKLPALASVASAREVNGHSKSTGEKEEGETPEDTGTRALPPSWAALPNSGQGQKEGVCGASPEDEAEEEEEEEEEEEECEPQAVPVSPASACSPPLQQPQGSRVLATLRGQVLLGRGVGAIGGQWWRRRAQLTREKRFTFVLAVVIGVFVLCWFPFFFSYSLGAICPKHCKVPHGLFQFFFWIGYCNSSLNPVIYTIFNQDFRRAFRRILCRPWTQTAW
Field: Alpha 2B intrinsic activity. Provide a value for each of the compounds that follow.
Just the number, please, no unit attached.

Problem: Alpha 2B intrinsic activity for Cc1cccc2c1CC(c1c[nH]c(=S)[nH]1)C2 (stereo not drawn) ?
Result: 0.99

Problem: Quick one: CCC1=C(c2ccc(F)cc2)C(Cc2c[nH]c(=S)[nH]2)CC1 (stereo not drawn)
Result: 0.97

Problem: Also need Fc1ccc(C2=CCC[C@@H]2Cc2c[nH]c(=S)[nH]2)cc1 , thanks.
Result: 0.97

Problem: Field entry: COc1ccc2c(c1)CCC2Cc1c[nH]c(=S)[nH]1 (stereo not drawn)
Result: 0.68

Problem: Same read-out for CC1=CCCCC1Cc1c[nH]c(=S)[nH]1 (stereo not drawn) ?
Result: 1.07

Problem: Note, next up: Fc1ccc(C2=CCCC2Cc2c[nH]c(=S)[nH]2)cc1F (stereo not drawn)
Result: 0.44

Problem: And then S=c1[nH]cc(C[C@@H]2CCC3=C(CCCC3)C2)[nH]1 , what is it?
Result: 0.73

Problem: Similarly, CCC1=CC(Cc2c[nH]c(=S)[nH]2)CC1 (stereo not drawn) ?
Result: 0.49

Problem: Same lookup for S=c1[nH]cc(CC2CCC=C2c2cccs2)[nH]1 (stereo not drawn) , please.
Result: 0.53

Problem: Queued: Cc1ccc2c(c1)CC(c1c[nH]c(=S)[nH]1)C2 (stereo not drawn)
Result: 1.12

Problem: Field entry: O=C1c2c(Cl)cccc2CCC1Cc1c[nH]c(=S)[nH]1 (stereo not drawn)
Result: 0.99

Problem: Again, but for Fc1ccc2c(c1)C(Cc1c[nH]c(=S)[nH]1)CC2 (stereo not drawn)
Result: 1.01
